# measuredTarget: LTC4 -induced contractions of guinea-pig trachea (Cavia porcellus, UniProt H0VW05)
# Construct: contractions of guinea-pig tracheae; from tissue; host or cells: guinea-pig trachea
# Sequence (H0VW05 1-317): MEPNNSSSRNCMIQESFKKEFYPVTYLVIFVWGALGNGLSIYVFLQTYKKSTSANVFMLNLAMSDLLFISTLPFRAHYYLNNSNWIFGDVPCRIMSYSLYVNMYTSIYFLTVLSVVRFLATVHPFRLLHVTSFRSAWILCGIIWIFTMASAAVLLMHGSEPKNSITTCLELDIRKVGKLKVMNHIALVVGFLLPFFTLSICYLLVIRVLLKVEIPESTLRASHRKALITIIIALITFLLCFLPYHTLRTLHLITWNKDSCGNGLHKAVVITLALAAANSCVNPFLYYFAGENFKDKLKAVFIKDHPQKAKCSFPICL
# experimentSummary: inhibition of LTC4-induced contractions of guinea-pig trachea
# Assay type: cell-based
# conditionParameters: read-out: pKB values for the inhibition of LTC4 -induced contractions of guinea-pig trachea (converted)
We begin with a simple list: items and their reported log10 Kb.
parameter: log10 Kb (log10 of the value in nM)

| chemSmiles | log10 Kb |
| --- | --- |
| O=C(O)CCCNC(=O)c1cc(C(=O)O)ccc1OCCCc1ccc(OCCCCOc2ccccc2)cc1 | 1.80 |
| O=C(O)c1ccc(NC(=O)c2cc(C(=O)O)ccc2OCCCc2ccc(OCCCCOc3ccccc3)cc2)cc1 | 2.10 |
| O=C(O)CCNC(=O)c1cc(C(=O)O)ccc1OCCCc1ccc(OCCCCOc2ccccc2)cc1 | 1.90 |
| O=C(O)CCCC(=O)Nc1cc(C(=O)O)ccc1OCCCc1ccc(OCCCCOc2ccccc2)cc1 | 3.00 |
| O=C(O)CNC(=O)c1cc(C(=O)O)ccc1OCCCc1ccc(OCCCCOc2ccccc2)cc1 | 3.10 |
| O=C(O)CCCCC(=O)Nc1cc(C(=O)O)ccc1OCCCc1ccc(OCCCCOc2ccccc2)cc1 | 2.70 |

---

# measuredTarget: ^3 H-LTD4 binding to guinea-pig lung membranes (Cavia porcellus)
# Construct: from tissue; host or cells: guinea-pig lung membranes
# Sequence (Q2NNR5 1-340): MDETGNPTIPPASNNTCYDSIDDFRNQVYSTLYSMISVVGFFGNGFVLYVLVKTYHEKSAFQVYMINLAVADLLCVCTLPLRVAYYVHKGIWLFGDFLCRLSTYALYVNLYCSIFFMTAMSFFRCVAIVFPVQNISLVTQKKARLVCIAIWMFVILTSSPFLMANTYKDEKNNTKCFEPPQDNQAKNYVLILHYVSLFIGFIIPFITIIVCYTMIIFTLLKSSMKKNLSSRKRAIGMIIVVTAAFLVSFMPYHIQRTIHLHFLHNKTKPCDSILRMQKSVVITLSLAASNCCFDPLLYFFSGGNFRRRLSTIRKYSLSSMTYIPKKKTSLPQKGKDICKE
# experimentSummary: inhibition of ^3 H-LTD4 binding to guinea-pig lung membranes
# conditionParameters: read-out: pKi values for the inhibition of ^3 H-LTD4 binding to guinea-pig lung membranes (converted)
parameter: log10 of Ki (log10 of the value in nM)

| chemSmiles | log10 of Ki |
| --- | --- |
| CS(=O)(=O)Nc1ccc(OCCCc2ccc(OCCCCOc3ccccc3)cc2)c(C(=O)O)c1 | 3.30 |
| O=C(O)CCCCC(=O)Nc1cc(C(=O)O)ccc1OCCCc1ccc(OCCCCOc2ccccc2)cc1 | 3.00 |
| O=C(O)CCCCCOc1cc(C(=O)O)ccc1NC(=O)CCc1ccc(OCCCCOc2ccccc2)cc1 | 2.80 |
| O=C(O)CCCC(=O)Nc1cc(C(=O)O)ccc1OCCCc1ccc(OCCCCOc2ccccc2)cc1 | 3.20 |
| O=C(CCc1ccc(OCCCCOc2ccccc2)cc1)Nc1ccc(C(=O)O)cc1C(=O)O | 2.40 |
| O=C(O)CCNC(=O)c1cc(C(=O)O)ccc1OCCCc1ccc(OCCCCOc2ccccc2)cc1 | 2.40 |
| O=C(O)CCCOc1cc(C(=O)O)ccc1NC(=O)CCc1ccc(OCCCCOc2ccccc2)cc1 | 2.60 |
| O=C(O)CNC(=O)c1cc(C(=O)O)ccc1OCCCc1ccc(OCCCCOc2ccccc2)cc1 | 2.60 |
| O=C(CCc1ccc(OCCCCOc2ccccc2)cc1)Nc1cc(C(=O)O)cc(C(=O)O)c1 | 3.50 |
| O=C(O)CC(=O)Nc1cc(C(=O)O)ccc1OCCCc1ccc(OCCCCOc2ccccc2)cc1 | 2.50 |

Ref: patent US5872280A
